These measurements were taken from patent US20250161243A1.

System: MEF2 transcriptional activity
Assay: MEF2 transcriptional activity screen (Luciferase-MEF2 reporter in human neural progenitor cells)
Format: cell-based
Settings: Homo sapiens; concentration for half-maximal activity derived from the hill equation model; MEF2 luciferase reporter; read-out: qAC50
pEC50: −log10 of the molar value.
Hi, to clarify the labels: y covers pEC50 from 6 upward, n covers anything below 6.

Known results for compounds:
# input Check if pEC50 >= 6 (inclusive). Item: "CN(C)Cc1c(C(=O)NCCOc2ccc(C(=O)NO)cc2)oc2ccccc12"
# output n

# input Same lookup for "O=C(NO)c1cnc(N2CCN(S(=O)(=O)c3ccc4ccccc4c3)CC2)nc1" , please.
# output y

# input Same lookup for "CC(C)[C@H](C(=O)Nc1ccc(C(=O)NO)cc1)c1ccccc1" , please.
# output y

# input Same lookup for "Cn1nccc1Nc1nccc(-c2ccn([C@H](CO)c3ccc(Cl)c(F)c3)c(=O)c2)n1" , please.
# output n

# input Same lookup for CCOC(=O)OC(C)OC(=O)CNC(=O)[C@@H](CSSC[C@@H](N)CCSC)Cc1ccccc1 (stereo partly drawn) , please.
# output n

***
# input Check if pEC50 >= 6 (inclusive). Item: "O=C(NO)c1cnc(N2C[C@@H]3[C@H](C2)[C@H]3NCc2ccc3cc(F)ccc3n2)nc1"
# output y

# input Same lookup for "CC(CO)(CO)NCc1ccc2c3c(cccc13)-c1ccccc1-2" , please.
# output n

# input Same lookup for "CC(C)(CO)c1cc2cc(NC(=O)C3(c4ccc5c(c4)OC(F)(F)O5)CC3)c(F)cc2n1C[C@@H](O)CO" , please.
# output n

# input Same lookup for CCCNC(=O)c1ccc2c(c1)N(C(C)CN1CCCC1)c1ccccc1S2 (stereo not drawn) , please.
# output n

# input Same lookup for "CC(=O)Nc1ccc(C(=O)Nc2ccccc2N)cc1" , please.
# output n
